Measured GI50, listed per entry for reference.
System: ACHN
assay: NCI tumour cell line growth inhibition, 48 h
Active and inactive are the calls of the source. Cut-off read from the data, not from the text of the source: active = GI50 up to about 1.1 µM and inactive = higher.

[
  {
    "molecule": "O=C1C2C3SC(c4cc5ccccc5cc43)C2C(=O)N1c1ccccc1 (stereo unspecified)",
    "GI50": "48.5 µM (inactive)"
  },
  {
    "molecule": "CCN(CC)CCC(=O)/C=C/c1ccccc1",
    "GI50": "12.6 µM (inactive)"
  },
  {
    "molecule": "CC(C)=CCC/C(C)=C/CC/C(C)=C/Cc1c(O)c2ccccc2oc1=O",
    "GI50": "> 100 µM (inactive)"
  },
  {
    "molecule": "CSc1nc2c(c(=O)[nH]1)N=C(c1ccc(Cl)cc1)CC(c1ccccc1)N2 (stereo unspecified)",
    "GI50": "15.6 µM (inactive)"
  },
  {
    "molecule": "Cc1ccc(C(O)(c2ccc(C)cc2)c2ccccn2)cc1",
    "GI50": "> 100 µM (inactive)"
  },
  {
    "molecule": "CCn1c(CCCc2nc3c(=O)n(C)c(=O)n(C)c3[nH]2)nc2c1c(=O)n(C)c(=O)n2C",
    "GI50": "> 100 µM (inactive)"
  }
]
